# system.under.test: JNK1 (Homo sapiens (Human), UniProt P45983)
# Sequence (P45983 whole entry): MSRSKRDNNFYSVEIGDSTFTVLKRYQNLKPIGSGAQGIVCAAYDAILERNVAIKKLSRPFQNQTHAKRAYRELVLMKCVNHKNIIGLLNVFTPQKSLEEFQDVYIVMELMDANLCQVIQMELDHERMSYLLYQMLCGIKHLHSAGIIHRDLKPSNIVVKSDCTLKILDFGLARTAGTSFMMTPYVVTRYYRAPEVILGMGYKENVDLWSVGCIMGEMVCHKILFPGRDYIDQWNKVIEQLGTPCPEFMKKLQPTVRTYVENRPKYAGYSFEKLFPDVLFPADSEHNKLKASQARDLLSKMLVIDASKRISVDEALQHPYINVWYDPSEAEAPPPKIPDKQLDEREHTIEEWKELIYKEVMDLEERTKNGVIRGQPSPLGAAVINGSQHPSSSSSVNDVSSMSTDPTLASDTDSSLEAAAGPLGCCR
# experimental.protocol: In Vitro JNK1 Assay (TR-FRET, phosphorylation of GST-c-Jun)
# Type: biochemical
# experimental.parameters: 0.2 nM active JNK1 kinase, 26.7 nM GST-c-Jun, 2 μM ATP, 30 min at room temperature
endpoint.name: pIC50
Give bare numbers, as −log10 of the molar value.

| compound | system.under.test | result |
| --- | --- | --- |
| O=C(NCc1cn(-c2ccccc2)c2cc(Cl)ccc2c1=O)c1cc(F)ccc1F | JNK1 (Homo sapiens (Human), UniProt P45983) | 5.72 |
| O=c1c(CNc2nc3ccccc3s2)cn(-c2ccccc2)c2cc(Cl)ccc12 | JNK1 (Homo sapiens (Human), UniProt P45983) | 6.15 |
| O=C(NCc1cn(-c2ccccc2)c2cc(Cl)ccc2c1=O)c1ccn(Cc2cccc(Cl)c2)c(=O)c1 | JNK1 (Homo sapiens (Human), UniProt P45983) | 6.96 |
| O=C(NCc1cn(-c2ccccc2)c2cc(Cl)ccc2c1=O)c1ccc(N2CCNCC2)nc1 | JNK1 (Homo sapiens (Human), UniProt P45983) | 6.96 |
| O=C(NCc1cn(-c2ccccc2)c2cc(Cl)ccc2c1=O)c1cnc(N2CCC(O)CC2)s1 | JNK1 (Homo sapiens (Human), UniProt P45983) | 7.44 |
| CS(=O)(=O)C1CCN(c2ccc(C(=O)NCc3cn(-c4ccccc4)c4cc(Cl)ccc4c3=O)cn2)CC1 | JNK1 (Homo sapiens (Human), UniProt P45983) | 7.62 |

Give pIC50 for each of the items listed below.
1. CN(C)C(=O)c1c(CNC(=O)c2ccc(N3CCOCC3)cc2)c(=O)c2ccc(Cl)cc2n1-c1ccccc1
2. NS(=O)(=O)c1ccc(C(=O)NCc2cn(-c3ccccc3)c3cc(Cl)ccc3c2=O)cc1
3. O=C(NCc1c(-c2ncco2)n(-c2ccccc2)c2cc(Cl)ccc2c1=O)c1ccc(N2CCCCC2)nc1
4. COC(=O)c1c(CNC(=O)c2ccc(Cl)cc2)c(=O)c2ccc(OC)cc2n1-c1ccccc1

Ans:
1. 6.85
2. 7.26
3. 7.85
4. 7.00

----------
Record form. Attribute: pIC50. Fill in for each entry.
# system.under.test: UniProtKB P45983
# experimental.protocol: In Vitro JNK1 Assay (TR-FRET, phosphorylation of GST-c-Jun)
# Format: biochemical
# experimental.parameters: 0.2 nM active JNK1 kinase, 26.7 nM GST-c-Jun, 2 μM ATP, 30 min at room temperature
Answers are plain numbers, as −log10 of the molar value.

Answered examples (7):
| compound | result |
| --- | --- |
| O=C(NCc1cn(-c2ccccc2)c2cc(Cl)ccc2c1=O)Nc1ccc(OC(F)(F)F)cc1 | 5.74 |
| O=C(NCc1cn(-c2ccccc2)c2cc(Cl)ccc2c1=O)NC1C2CC3CC1CC(O)(C3)C2 (centres unmarked) | 6.62 |
| Cn1cc(C(=O)NCc2cn(-c3ccccc3)c3cc(Cl)ccc3c2=O)nn1 | 6.25 |
| COC(=O)c1c(CNC(=O)c2ccc(N3CCOCC3)nc2)c(=O)c2ccc(F)cc2n1-c1ccccc1 | 8.40 |
| COC(=O)c1c(CNC(=O)c2ccc(Cl)c(Cl)c2)c(=O)c2ccc(Cl)cc2n1-c1ccccc1 | 7.32 |
| CN(C)C(=O)c1c(CNC(=O)c2cnc(N3CCC(CCO)CC3)s2)c(=O)c2ccc(Cl)cc2n1-c1ccccc1 | 7.09 |
| O=C(NCc1cn(-c2ccccc2)c2cc(Cl)ccc2c1=O)c1ccc(NCCO)nc1 | 7.33 |

Documented pIC50 of COC(=O)c1c(CNC(=O)c2ccc(F)c(F)c2)c(=O)c2ccc(OC)cc2n1-c1ccccc1 : 7.41

----------
# system.under.test: JNK1 (Homo sapiens (Human), UniProt P45983)
# experimental.protocol: In Vitro JNK1 Assay (TR-FRET, phosphorylation of GST-c-Jun)
# Type: biochemical
# experimental.parameters: 0.2 nM active JNK1 kinase, 26.7 nM GST-c-Jun, 2 μM ATP, 30 min at room temperature
endpoint.name: IC50 (nM)
Numbers only, in nM.

| compound | system.under.test | endpoint.name | result |
| --- | --- | --- | --- |
| COC(=O)c1c(CNC(=O)c2ccc3cc[nH]c3c2)c(=O)c2ccc(C(F)(F)F)nc2n1-c1ccccc1 | JNK1 (Homo sapiens (Human), UniProt P45983) | IC50 | 79 |
| CC(C)(C)OC(=O)N1CCC(C(=O)NCc2cn(-c3ccccc3)c3cc(Cl)ccc3c2=O)C1 (stereo not shown) | JNK1 (Homo sapiens (Human), UniProt P45983) | IC50 | 330 |
| COC(=O)c1c(CNC(=O)c2ccccc2F)c(=O)c2ccc(Cl)cc2n1-c1ccccc1 | JNK1 (Homo sapiens (Human), UniProt P45983) | IC50 | 65 |
| COC(=O)c1c(CNC(=O)c2ccccc2OC)c(=O)c2ccc(Cl)cc2n1-c1ccccc1 | JNK1 (Homo sapiens (Human), UniProt P45983) | IC50 | 670 |
| O=C(NCc1cn(-c2ccccc2)c2cc(Cl)ccc2c1=O)c1ccc(N2CC[C@@H](O)C2)nc1 | JNK1 (Homo sapiens (Human), UniProt P45983) | IC50 | 24 |
| COC(=O)c1c(CNC(=O)c2ccc(-c3nc(C)no3)cc2)c(=O)c2ccc(Cl)cc2n1-c1ccccc1 | JNK1 (Homo sapiens (Human), UniProt P45983) | IC50 | 29 |
| COC(=O)c1c(CNC(=O)c2ccc(F)cc2)c(=O)c2ccc(OC)cc2n1-c1ccccc1 | JNK1 (Homo sapiens (Human), UniProt P45983) | IC50 | 73 |
| COc1cc2ncnc(NCc3cn(-c4ccccc4)c4cc(Cl)ccc4c3=O)c2cc1OC | JNK1 (Homo sapiens (Human), UniProt P45983) | IC50 | 23 |

Give IC50 for each of the items listed below.
1. O=C(NCc1cn(-c2ccccc2)c2cc(Cl)ccc2c1=O)c1cnc(N2CCCCC2)s1
2. CN(C)C(=O)c1c(CNC(=O)c2ccc(-c3cnco3)cc2)c(=O)c2ccc(Cl)cc2n1-c1ccccc1

Ans:
1. 16
2. 150
